B1: Pistol ribozyme (parent)
chain: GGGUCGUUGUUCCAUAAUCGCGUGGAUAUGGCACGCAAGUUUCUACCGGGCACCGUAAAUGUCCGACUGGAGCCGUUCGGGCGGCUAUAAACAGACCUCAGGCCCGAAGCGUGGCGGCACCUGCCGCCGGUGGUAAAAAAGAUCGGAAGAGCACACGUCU

- Variants of: B1
- assay summary: aptazyme ON/OFF ratio, guanine; higher = stronger switching; co-transcriptional cleavage with and without guanine
metric: aptazyme ON/OFF ratio

U7G U8G G9A U10G C13A | 1.39
U7G U8G G9C U10G U11A C12U C13G | 1.1
U8A G9U U10G U11G C12A | 1.07
U7C U10C C12A C13A | 1.37
U10C U11A | 1.47
U7G U8A G9C U11C C12G C13U | 1.04
U8A G9C U10C U11A | 0.878
U7C G9C U10A U11A C12U C13A | 1.04
U7C U8A G9C U10C U11A C12U | 1.06
U7C G9A U10G U11G C12U C13U | 1.21
U7A U8G G9A U11C | 1.33
U7G U8G U11G C12G | 1.28
U7G U8A G9C U11G C12A C13G | 1.06
U7C U8G G9A U11G C13U | 1.13
U7A G9C U10A C12G C13U | 1.17
U7A U8A G9A C12A C13G | 1.06
U7C U8A G9C U11C C12U C13G | 1.06
U7A G9C U10C U11G C12G C13A | 1.07
U7A U8G U10A C12U | 1.17
U7C G9C U10A C12A C13U | 1.09
U7A U8A G9A U11G C12U C13G | 1.18
U7A U8G U10C U11A C12A C13G | 1.53
U7G U10C U11G C12G C13G | 1.07
U7A U8C U11G C12A C13G | 1.12
U7C G9A U10C U11A C12A | 1.27
U7G U10A C12G C13G | 1.2
U8G U10G U11A C12U | 1.38
U7C U8C G9C U11A | 1.71
U7A G9A U10C U11C C12U C13G | 1.04
U7C U8G G9U U10C U11C C12U C13G | 1.05
U7C U10G | 1.65
U7G U8C G9U U10G C12U C13G | 1.39
U7C G9A U10A U11A C13A | 1.08
U8C G9U U10A U11C C12G C13A | 1.25
U8C G9U U10C C12U C13G | 1.07
U8G G9U U10C U11A C12U C13A | 1.08
U7G U8G G9C U11G C12U C13A | 1.3
U7G U8G G9C U10G C12U C13G | 1.05
U7C U8A G9C U10G U11A C12A C13G | 1.13
U8G G9A C12U C13U | 1.25
U7A U8G C12G C13A | 1.38
U7A G9A U10G U11G C12U | 1.47
U7C U8A G9U U10G U11A C12U C13G | 1.11
U7G U8C G9U U10A C12G C13U | 1.22
U7A U8C U10C C12A | 1.32
U8G G9A U10C | 2.29
U7G U8G G9C U10C U11A C13A | 1.21
U7G U8G G9C U10C U11A C12A C13A | 1.33
U7A U8G G9U U10A C12G C13G | 1.47
G9U U10G C12A C13U | 1.45
U7A U10G U11C C12A C13G | 1.12
U7G U8A G9U U10A U11C | 1.03
U7C G9U U10G C12A C13G | 1.13
U7C U8C G9C U10C C12U C13G | 1.14
U7C G9A U11G C13G | 1.07
U8G U10C U11A C12G C13U | 1.27
U7G G9C U10C C12G | 1.29
U7G G9U U10G U11C C13U | 1.1
U7A U8C G9U C12U | 1.33
U7A G9A U10C U11C | 1.01
U7C G9A U10G U11A C12A C13A | 1.17
U8A G9U U10G U11A C12U C13G | 1.16
U11A C12A | 2.18
U7A U8G G9C U11G C12G | 1.66
U7A U8G G9C U10G U11C C12U C13U | 1.21
U7G U8G G9U U10C U11C C13A | 1.28
U7G G9C U10C U11G C12A C13G | 1.13
U7C U8G G9C C13G | 1.04
U8G G9A U10A C12A C13A | 1.33
U7G U8A G9U U11C | 1.08
U7A U8C G9U C12G C13U | 1.37
U7C U10C U11A | 2.11
U7G U8A G9C U11A | 1.14
U7C U8G U10C U11C C12U C13A | 1.04
U7A U8C U10G U11G C12U | 1.34
U7C U8C G9U U11C C12U C13U | 1.02
U7G U8A G9C U10G U11C C12U | 1.05
U7A U8C G9C U11A C12G C13G | 1.16
U7G G9U U10C U11G C12A C13U | 1.16
U7A U8C U10C U11G C12U C13G | 1.16
U7C U10C U11C C12U C13G | 1.24
G9U U10G U11C C12A C13G | 1.29
U8A G9C U10C U11C C13G | 1.06
U7C U8G G9U U10G U11C C12A C13U | 1.15
U7G U8G G9A U10C U11G C12A | 1.15
U7C G9U U10C U11C C12G | 1.02
U7C U8G U10A C13U | 1.46
U7G U11A C13U | 1.36
U8C G9C U10A C12G | 1.25
U7A U8A G9A U10C C12U | 1.23
U7G U8C U10C C12U C13U | 1.27
